# target.or.system: full-length human PIKFYVE (Homo sapiens (Human), UniProt Q9Y2I7, L932S/Q1183K/Q995L/S1033A/S696N/T998S)
# Sequence (Q9Y2I7 whole entry S696N/L932S/Q995L/T998S/S1033A/Q1183K): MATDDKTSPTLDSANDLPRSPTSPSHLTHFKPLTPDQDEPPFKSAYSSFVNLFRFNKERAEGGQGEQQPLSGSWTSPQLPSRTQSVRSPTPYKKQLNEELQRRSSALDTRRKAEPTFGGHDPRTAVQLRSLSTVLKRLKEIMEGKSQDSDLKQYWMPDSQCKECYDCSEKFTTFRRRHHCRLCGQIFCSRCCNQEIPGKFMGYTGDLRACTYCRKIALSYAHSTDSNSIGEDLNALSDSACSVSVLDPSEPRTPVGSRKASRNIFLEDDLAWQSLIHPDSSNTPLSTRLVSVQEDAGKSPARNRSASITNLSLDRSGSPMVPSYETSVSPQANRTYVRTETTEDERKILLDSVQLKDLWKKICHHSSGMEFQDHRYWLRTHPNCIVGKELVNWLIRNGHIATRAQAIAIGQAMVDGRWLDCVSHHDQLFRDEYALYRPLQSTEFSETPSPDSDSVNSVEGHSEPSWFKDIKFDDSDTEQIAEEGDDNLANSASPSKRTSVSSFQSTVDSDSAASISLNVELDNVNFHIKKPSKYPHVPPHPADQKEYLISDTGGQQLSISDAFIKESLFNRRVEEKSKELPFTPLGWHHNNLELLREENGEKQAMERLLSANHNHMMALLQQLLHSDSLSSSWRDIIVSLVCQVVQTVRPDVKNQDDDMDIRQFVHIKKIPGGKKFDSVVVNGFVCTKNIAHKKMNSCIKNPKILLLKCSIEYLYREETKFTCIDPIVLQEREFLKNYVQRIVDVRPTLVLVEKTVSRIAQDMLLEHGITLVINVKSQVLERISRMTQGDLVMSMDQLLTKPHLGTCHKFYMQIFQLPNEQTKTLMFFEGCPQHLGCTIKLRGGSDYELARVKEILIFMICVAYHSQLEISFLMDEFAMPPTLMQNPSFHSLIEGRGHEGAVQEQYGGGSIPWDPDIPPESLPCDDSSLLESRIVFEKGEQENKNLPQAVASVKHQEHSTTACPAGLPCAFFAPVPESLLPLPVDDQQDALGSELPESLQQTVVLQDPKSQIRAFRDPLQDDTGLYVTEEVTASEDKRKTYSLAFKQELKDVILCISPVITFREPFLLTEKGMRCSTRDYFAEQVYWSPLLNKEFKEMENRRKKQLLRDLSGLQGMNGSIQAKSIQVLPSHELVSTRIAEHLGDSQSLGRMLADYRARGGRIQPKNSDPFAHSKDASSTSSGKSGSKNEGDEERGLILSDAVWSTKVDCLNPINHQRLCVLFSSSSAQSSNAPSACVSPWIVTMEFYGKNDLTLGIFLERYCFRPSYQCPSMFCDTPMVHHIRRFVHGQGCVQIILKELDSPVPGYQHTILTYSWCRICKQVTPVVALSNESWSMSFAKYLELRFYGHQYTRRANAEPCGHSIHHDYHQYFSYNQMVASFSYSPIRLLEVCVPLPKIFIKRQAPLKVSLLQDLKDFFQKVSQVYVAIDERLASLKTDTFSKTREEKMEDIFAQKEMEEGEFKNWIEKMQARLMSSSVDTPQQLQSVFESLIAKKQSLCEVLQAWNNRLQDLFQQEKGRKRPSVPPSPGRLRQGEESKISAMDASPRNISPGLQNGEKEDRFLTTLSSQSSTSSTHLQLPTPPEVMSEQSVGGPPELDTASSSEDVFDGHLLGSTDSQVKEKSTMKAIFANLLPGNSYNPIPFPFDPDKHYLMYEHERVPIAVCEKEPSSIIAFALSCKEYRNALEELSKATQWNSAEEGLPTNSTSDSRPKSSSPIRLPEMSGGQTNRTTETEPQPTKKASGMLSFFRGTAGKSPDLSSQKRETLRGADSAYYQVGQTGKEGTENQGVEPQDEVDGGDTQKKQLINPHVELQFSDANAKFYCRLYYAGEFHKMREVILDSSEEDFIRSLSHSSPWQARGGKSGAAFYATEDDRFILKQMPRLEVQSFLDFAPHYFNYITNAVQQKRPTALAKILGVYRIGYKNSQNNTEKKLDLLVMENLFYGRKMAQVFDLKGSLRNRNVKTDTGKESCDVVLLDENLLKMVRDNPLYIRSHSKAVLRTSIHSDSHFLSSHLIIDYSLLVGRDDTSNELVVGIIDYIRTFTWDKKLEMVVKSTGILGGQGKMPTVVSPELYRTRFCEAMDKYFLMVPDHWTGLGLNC
# run.description: PIKfyve biochemical assay (ADP-Glo Kinase assay, Carna Biosciences)
# test.conditions: ADP-Glo, GST-PIKFYVE, 10 μM to 3 nM; read-out: hPIKfyve IC50
pIC50: −log10 of the molar value.
Here the recorded pIC50 is given for each entry.

>>> experimental_value("Cn1c(-c2ccncc2)nc2c(N3CCOCC3)nc(-c3ccnn3C3CCCN(C(=O)OC(C)(C)C)C3)nc21 (stereo not shown)")
"6.00 to 7.00"
>>> experimental_value("Cn1c(-c2ccncc2)nc2c(N3CCOCC3)nc(-n3ccc(CC4CNC4)n3)nc21")
"6.00 to 7.00"

We now examine a further compound.
According to the records, this compound Cn1c(-c2ccncc2)nc2c(N3CCOCC3)nc(-c3ccn(C4CCCN(C(=O)OC(C)(C)C)C4)n3)nc21 (stereo not shown) displays pIC50 of 6.00 to 7.00
